tested on: Saccharomyces cerevisiae; assay: protein stability index of tFT-peptide fusion (C-terminal peptide) (PSI (0-1 scale)); higher = more stable (slower turnover); conditions: genetic background: wild type; temperature: 30 C;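 note: PSI is a weighted mean of sequencing reads over stability bins, variants kept only with over 10 reads, mCherry proximal and sfGFP distal, peptide attached via GGGS linker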
Endpoint name: protein stability index
Form: value (number only, do not type unit).

AINAHGISKSYA = 0.688
EGHSPVQNVIEQ = 0.698
QGTHRGSGGVTE = 0.716
WSSGLHHLPPSP = 0.706
YFCGARSVGPGD = 0.717

Q: Quick check: protein stability index of KQMRIEYKTRNI ?
Result: 0.604

Q: Sample SNLRSPFPSLPL — what was its protein stability index?
Result: 0.714

Q: Using the record for YKKVKADKKKRM , report its protein stability index.
Result: 0.687

Q: Would you kindly share the measured protein stability index for PAPFPAPPTHGP ?
Result: 0.717

Q: May I ask what protein stability index has been recorded for RLSVRPGPLRLL ?
Result: 0.68
